Cited source for all entries: patent US20120088809A1

system_tested: recombinant human-MT1 receptor (Homo sapiens, UniProt P48039)
Construct: expressed in transfected cells; host or cells: unnamed cell line co-expressing mitochondrial apoaequorin and Gα16
Sequence (P48039 whole entry): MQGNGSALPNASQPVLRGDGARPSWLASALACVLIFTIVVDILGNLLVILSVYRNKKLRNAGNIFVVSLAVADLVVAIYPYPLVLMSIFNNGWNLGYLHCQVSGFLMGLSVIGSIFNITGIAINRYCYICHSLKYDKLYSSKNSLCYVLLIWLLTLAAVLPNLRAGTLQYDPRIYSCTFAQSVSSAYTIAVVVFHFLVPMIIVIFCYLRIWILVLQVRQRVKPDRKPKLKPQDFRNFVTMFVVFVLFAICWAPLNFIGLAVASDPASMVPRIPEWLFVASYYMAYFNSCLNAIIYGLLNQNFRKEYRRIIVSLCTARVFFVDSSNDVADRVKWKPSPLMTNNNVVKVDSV
assay_comment: In vitro MT1 screening (AequoScreen aequorin luminescence, agonism)
Assay type: cell-based
condition_set: 1 nM compound; percentage of activity relative to the reference agonist at the EC100 concentration
# Lookup of reported activation at 0.001 µM keyed by entry
The figure you give is taken to be in %; do not add the unit.

compound: CCC(=O)N[C@H]1CCN(c2ccc(F)c3c2CC(C)O3)C1 (stereo partly drawn)
property_measured: activation at 0.001 µM
recorded_result: 30
//
compound: CCOC(=O)N[C@H]1CCN(c2ccc(F)c3c2CC(C)O3)C1 (stereo partly drawn)
property_measured: activation at 0.001 µM
recorded_result: 28
//
compound: CCNC(=O)N[C@H]1CCN(c2ccc(F)c3c2CC(C)O3)C1 (stereo partly drawn)
property_measured: activation at 0.001 µM
recorded_result: 18
//
compound: COC(=O)N[C@H]1CCN(c2ccc(F)c3c2CC(C)O3)C1 (stereo partly drawn)
property_measured: activation at 0.001 µM
recorded_result: 36
//
compound: CC(=O)N[C@H]1CCN(c2ccc(F)c3c2CC(C)O3)C1 (stereo partly drawn)
property_measured: activation at 0.001 µM
recorded_result: 19

Identify measured activation at 0.001 µM associated with CC1Cc2c(cccc2N2CC[C@H](NC(=O)C(F)(F)F)C2)O1 (stereo partly drawn)
8

Identify measured activation at 0.001 µM associated with CC1Cc2c(cccc2N2CC[C@H](NC(=O)C(C)C)C2)O1 (stereo partly drawn)
6

Identify measured activation at 0.001 µM associated with CCCC(=O)N[C@H]1CCN(c2ccc(F)c3c2CC(C)O3)C1 (stereo partly drawn)
32

Identify measured activation at 0.001 µM associated with CCC(=O)NCC[C@@H]1CCc2ccc3c(c21)CCO3 [Ramelteon, reference compound]
45

###

system_tested: recombinant human-MT1 receptor (Homo sapiens, UniProt P48039)
Construct: expressed in transfected cells; host or cells: unnamed cell line co-expressing mitochondrial apoaequorin and Gα16
assay_comment: In vitro MT1 screening (AequoScreen aequorin luminescence, agonism)
Format: cell-based
condition_set: 1 nM compound; percentage of activity relative to the reference agonist at the EC100 concentration
property_measured: activation at 0.001 µM (%)
The figure you give is taken to be in %; do not add the unit.

compound: CC1Cc2c(N3CC[C@H](NC(=O)C(C)C)C3)ccc(F)c2O1 (stereo partly drawn)
property_measured: activation at 0.001 µM
recorded_result: 24
//
compound: CCC(=O)N[C@H]1CCN(c2cccc3c2CC(CC)O3)C1 (stereo partly drawn)
property_measured: activation at 0.001 µM
recorded_result: 26
//
compound: CC1Cc2c(cccc2N2CC[C@H](NC(=O)C3CC3)C2)O1 (stereo partly drawn)
property_measured: activation at 0.001 µM
recorded_result: 6
//
compound: CC(C)CC(=O)N[C@H]1CCN(c2cccc3c2CC(C)O3)C1 (stereo partly drawn)
property_measured: activation at 0.001 µM
recorded_result: 28
//
compound: CCC(C)C(=O)N[C@H]1CCN(c2ccc(F)c3c2CC(C)O3)C1 (stereo partly drawn)
property_measured: activation at 0.001 µM
recorded_result: 17
//
compound: CC1Cc2c(N3CC[C@H](NC(=O)C(F)(F)F)C3)ccc(F)c2O1 (stereo partly drawn)
property_measured: activation at 0.001 µM
recorded_result: 32
//
compound: CC1Cc2c(N3CC[C@H](NC(=O)C(C)F)C3)ccc(F)c2O1 (stereo partly drawn)
property_measured: activation at 0.001 µM
recorded_result: 44
//
compound: CCCC1Cc2c(cccc2N2CC[C@H](NC(=O)CC)C2)O1 (stereo partly drawn)
property_measured: activation at 0.001 µM
recorded_result: 15

Continue with the next compound.
Identify measured activation at 0.001 µM associated with CC1Cc2c(N3CC[C@H](NC(=O)C4CC4)C3)ccc(F)c2O1 (stereo partly drawn)
22

###

system_tested: recombinant human-MT1 receptor (Homo sapiens, UniProt P48039)
Construct: expressed in transfected cells; host or cells: unnamed cell line co-expressing mitochondrial apoaequorin and Gα16
assay_comment: In vitro MT1 screening (AequoScreen aequorin luminescence, agonism)
Format: cell-based
condition_set: 100 nM compound; percentage of activity relative to the reference agonist at the EC100 concentration
property_measured: activation at 0.1 µM

Use the examples below as a reference point.
compound: CC1Cc2c(N3CC[C@H](NC(=O)C(C)F)C3)ccc(F)c2O1 (some centres unmarked) [Example 4]
activation at 0.1 µM: 98%
//
compound: COC(=O)N[C@H]1CCN(c2ccc(F)c3c2CC(C)O3)C1 (some centres unmarked) [Example 10]
activation at 0.1 µM: 89%
//
compound: CC1Cc2c(cccc2N2CC[C@H](NC(=O)C3CC3)C2)O1 (some centres unmarked) [Example 17]
activation at 0.1 µM: 79%
//
compound: CCC(=O)N[C@H]1CCN(c2ccc(F)c3c2CC(C)O3)C1 (some centres unmarked) [Example 3]
activation at 0.1 µM: 88%
//
compound: CCCC(=O)N[C@H]1CCN(c2ccc(F)c3c2CC(C)O3)C1 (some centres unmarked) [Example 5]
activation at 0.1 µM: 91%

Identify measured activation at 0.1 µM associated with CC1Cc2c(N3CC[C@H](NC(=O)C4CC4)C3)ccc(F)c2O1 (some centres unmarked) [Example 7]
80%

Identify measured activation at 0.1 µM associated with CCNC(=O)N[C@H]1CCN(c2ccc(F)c3c2CC(C)O3)C1 (some centres unmarked) [Example 12]
90%

Identify measured activation at 0.1 µM associated with CC1Cc2c(cccc2N2CC[C@H](NC(=O)C(C)C)C2)O1 (some centres unmarked) [Example 16]
76%

###

# Lookup of reported concentration at 15 min keyed by entry
assay_comment: Plasma drug levels after oral administration
Assay type: in vivo
condition_set: rat, plasma; 15 min after oral administration of 3 mg/kg, male Sprague-Dawley rats
The figure you give is taken to be in µg/mL; do not add the unit.

Use the examples below as a reference point.
compound: CCC(=O)N[C@H]1CCN(c2cccc3c2CC(CC)O3)C1 (stereo partly drawn)
concentration at 15 min / µg/mL: 0.106
--
compound: CCC(=O)N[C@H]1CCN(c2ccc(F)c3c2CC(C)O3)C1 (stereo partly drawn)
concentration at 15 min / µg/mL: 0.113

Identify measured concentration at 15 min associated with CC(=O)N[C@H]1CCN(c2cccc3c2CC(C)O3)C1 (stereo partly drawn)
0.433

###

# Lookup of reported activation at 0.1 µM keyed by entry
system_tested: recombinant human-MT1 receptor (Homo sapiens)
Construct: expressed in transfected cells; host or cells: unnamed cell line co-expressing mitochondrial apoaequorin and Gα16
assay_comment: In vitro MT1 screening (AequoScreen aequorin luminescence, agonism)
Format: cell-based
condition_set: 100 nM compound; percentage of activity relative to the reference agonist at the EC100 concentration
The figure you give is taken to be in %; do not add the unit.

Use the examples below as a reference point.
molecule: CC(C)CC(=O)N[C@H]1CCN(c2cccc3c2CC(C)O3)C1 (stereo partly drawn) [Example 18]
property_measured: activation at 0.1 µM
recorded_result: 82
--
molecule: CC1Cc2c(N3CC[C@H](NC(=O)C(C)C)C3)ccc(F)c2O1 (stereo partly drawn) [Example 6]
property_measured: activation at 0.1 µM
recorded_result: 75
--
molecule: CC(=O)N[C@H]1CCN(c2cccc3c2CC(C)O3)C1 (stereo partly drawn) [Example 13]
property_measured: activation at 0.1 µM
recorded_result: 91
--
molecule: CCCCC(=O)N[C@H]1CCN(c2ccc(F)c3c2CC(C)O3)C1 (stereo partly drawn) [Example 8]
property_measured: activation at 0.1 µM
recorded_result: 89
--
molecule: CCOC(=O)N[C@H]1CCN(c2ccc(F)c3c2CC(C)O3)C1 (stereo partly drawn) [Example 11]
property_measured: activation at 0.1 µM
recorded_result: 73

Identify measured activation at 0.1 µM associated with CCC1Cc2c(cccc2N2CC[C@H](NC(C)=O)C2)O1 (stereo partly drawn) [Example 19]
81

Identify measured activation at 0.1 µM associated with CCCC1Cc2c(cccc2N2CC[C@H](NC(=O)CC)C2)O1 (stereo partly drawn) [Example 21]
78

Identify measured activation at 0.1 µM associated with CCC(=O)N[C@H]1CCN(c2cccc3c2CC(C)O3)C1 (stereo partly drawn) [Example 15]
92

Identify measured activation at 0.1 µM associated with CCC(=O)N[C@H]1CCN(c2cccc3c2CC(CC)O3)C1 (stereo partly drawn) [Example 20]
88
